Molecular target: T1, TGFβ3 (R&D Systems) (Homo sapiens (Human), UniProt P10600 301-412, Active TGFβ3 is a disulfide-linked homodimer of this chain; one copy is given.)
T1 construct: also called TGFB3
T1 sequence: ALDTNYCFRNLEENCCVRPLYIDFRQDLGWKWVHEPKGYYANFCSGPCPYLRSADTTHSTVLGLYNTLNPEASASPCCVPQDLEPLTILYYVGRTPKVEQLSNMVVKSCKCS
Assay: SPR full titration
assay readout: pKd
Give bare numbers, as −log10 of the molar value.

| binder | pKd |
| --- | --- |
| affinity matured HcLb 233 (antibody, V domains shown, full IgG; also called canHcLb/55SW/100DY/57/SM + canHcLb/237ND/242TS) VH: EVQLVQSGAEVKKPGASVKVSCKTSGYTFITYWMNWVRQAPGAGLDWMGQIFPAWGMTNYNEMFEGRVTLTADTSTSTAYMELSSLRAGDIAVYYCARGYGNYALDAMDYWGQGTLVTVSS VL: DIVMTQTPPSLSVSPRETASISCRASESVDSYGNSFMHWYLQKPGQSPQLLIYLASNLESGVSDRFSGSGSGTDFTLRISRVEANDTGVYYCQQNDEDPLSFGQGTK | 9.34 |

Documented pKd of affinity matured HcLb 239 (antibody, V domains shown, full IgG; also called canHcLb/55SW/100DY/31/TK + canHcLb/237ND/242TS) VH: EVQLVQSGAEVKKPGASVKVSCKTSGYTFIKYWMNWVRQAPGAGLDWMGQIFPAWGSTNYNEMFEGRVTLTADTSTSTAYMELSSLRAGDIAVYYCARGYGNYALDAMDYWGQGTLVTVSS VL: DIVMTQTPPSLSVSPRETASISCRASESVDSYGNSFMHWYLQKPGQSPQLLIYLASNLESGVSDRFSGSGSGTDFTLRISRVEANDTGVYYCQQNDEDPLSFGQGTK : 9.37
